Provenance of the data: ChEMBL document CHEMBL1914335

- MEASUREMENT_TARGET: Sigma non-opioid intracellular receptor 1 (Cavia porcellus, UniProt Q60492)
- Sequence (Q60492 whole entry): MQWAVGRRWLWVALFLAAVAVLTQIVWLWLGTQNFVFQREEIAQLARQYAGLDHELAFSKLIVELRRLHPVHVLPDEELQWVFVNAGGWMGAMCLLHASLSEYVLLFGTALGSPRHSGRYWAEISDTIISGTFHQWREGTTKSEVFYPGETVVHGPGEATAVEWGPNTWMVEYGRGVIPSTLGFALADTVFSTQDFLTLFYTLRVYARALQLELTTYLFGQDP
- ASSAY_PROCEDURE: Displacement of [3H]-(+)-pentazocine from sigma1 receptor in guinea pig brain membrane after 150 mins by liquid scintillation counting
Catalogue of Ki readings, one per entry.
PARAMETER: Ki (nM)

- MOLECULE: "COc1cccc(/C(C)=C/CN2CCOCC2)c1"
  UOM: "nM"
  RESULT_QUALIFIER: ">"
  VALUE_OBSERVED: 1000
- MOLECULE: "C/C(=C\\CN1CCC(Cc2ccccc2)CC1)c1ccc(-c2ccccc2)cc1"
  UOM: "nM"
  RESULT_QUALIFIER: "="
  VALUE_OBSERVED: 7.02
- MOLECULE: "C/C(=C\\CN1CCOCC1)c1ccccc1"
  UOM: "nM"
  RESULT_QUALIFIER: ">"
  VALUE_OBSERVED: 1000
- MOLECULE: "COc1cccc(/C(C)=C/CN(C)Cc2ccccc2)c1"
  UOM: "nM"
  RESULT_QUALIFIER: "="
  VALUE_OBSERVED: 10
- MOLECULE: "C/C(=C\\CN1CCCCC1)c1ccc2ccccc2c1"
  UOM: "nM"
  RESULT_QUALIFIER: "="
  VALUE_OBSERVED: 0.97
- MOLECULE: "C/C(=C\\CN1CCOCC1)c1ccc(-c2ccccc2)cc1"
  UOM: "nM"
  RESULT_QUALIFIER: "="
  VALUE_OBSERVED: 11.6
- MOLECULE: "C/C(=C\\CN1CCC(Cc2ccccc2)CC1)c1ccccc1"
  UOM: "nM"
  RESULT_QUALIFIER: "="
  VALUE_OBSERVED: 1.07
- MOLECULE: "COc1cccc(/C(C)=C/CN2CCC(Cc3ccccc3)CC2)c1"
  UOM: "nM"
  RESULT_QUALIFIER: "="
  VALUE_OBSERVED: 7.7
- MOLECULE: "COc1ccc(/C(C)=C/CN2CCOCC2)cc1"
  UOM: "nM"
  RESULT_QUALIFIER: ">"
  VALUE_OBSERVED: 1000
- MOLECULE: "C/C(=C\\CN1CCCCC1)c1ccccc1"
  UOM: "nM"
  RESULT_QUALIFIER: "="
  VALUE_OBSERVED: 459
- MOLECULE: "C/C(=C\\CN(C)Cc1ccccc1)c1ccccc1"
  UOM: "nM"
  RESULT_QUALIFIER: "="
  VALUE_OBSERVED: 92
- MOLECULE: "C/C(=C\\CN1CCC(Cc2ccccc2)CC1)c1ccc2ccccc2c1"
  UOM: "nM"
  RESULT_QUALIFIER: "="
  VALUE_OBSERVED: 23
- MOLECULE: "COc1ccc(/C(C)=C/CN(C)Cc2ccccc2)cc1"
  UOM: "nM"
  RESULT_QUALIFIER: "="
  VALUE_OBSERVED: 5.25
- MOLECULE: "COc1cccc(/C(C)=C/CN2CCCCC2)c1"
  UOM: "nM"
  RESULT_QUALIFIER: "="
  VALUE_OBSERVED: 91
- MOLECULE: "C/C(=C\\CN1CCCCC1)c1ccc(-c2ccccc2)cc1"
  UOM: "nM"
  RESULT_QUALIFIER: "="
  VALUE_OBSERVED: 0.86
- MOLECULE: "COc1cccc(/C(C)=C/CN(C)C)c1"
  UOM: "nM"
  RESULT_QUALIFIER: ">"
  VALUE_OBSERVED: 1000
- MOLECULE: "CC(CCN1CCCCC1)c1ccc(-c2ccccc2)cc1.Cl (racemic)"
  UOM: "nM"
  RESULT_QUALIFIER: "="
  VALUE_OBSERVED: 0.7
- MOLECULE: "C/C(=C\\CN(C)C)c1ccccc1"
  UOM: "nM"
  RESULT_QUALIFIER: ">"
  VALUE_OBSERVED: 1000
- MOLECULE: "COc1ccc(/C(C)=C/CN(C)C)cc1"
  UOM: "nM"
  RESULT_QUALIFIER: "="
  VALUE_OBSERVED: 806
- MOLECULE: "COc1ccc(/C(C)=C/CN2CCC(Cc3ccccc3)CC2)cc1"
  UOM: "nM"
  RESULT_QUALIFIER: "="
  VALUE_OBSERVED: 4.14
- MOLECULE: "C/C(=C\\CN1CCOCC1)c1ccc2ccccc2c1"
  UOM: "nM"
  RESULT_QUALIFIER: "="
  VALUE_OBSERVED: 9.6
- MOLECULE: "COc1ccc(/C(C)=C/CN2CCCCC2)cc1"
  UOM: "nM"
  RESULT_QUALIFIER: "="
  VALUE_OBSERVED: 14
